- system-under-test: T1, human CXCR5 (human, UniProt P32302 1-372)
- T1 construct: whole, on cells; Always presented on cells; one entry is used for all cell lines; also called hCXCR5; C-X-C chemokine receptor type 5
- T1 sequence (looked up): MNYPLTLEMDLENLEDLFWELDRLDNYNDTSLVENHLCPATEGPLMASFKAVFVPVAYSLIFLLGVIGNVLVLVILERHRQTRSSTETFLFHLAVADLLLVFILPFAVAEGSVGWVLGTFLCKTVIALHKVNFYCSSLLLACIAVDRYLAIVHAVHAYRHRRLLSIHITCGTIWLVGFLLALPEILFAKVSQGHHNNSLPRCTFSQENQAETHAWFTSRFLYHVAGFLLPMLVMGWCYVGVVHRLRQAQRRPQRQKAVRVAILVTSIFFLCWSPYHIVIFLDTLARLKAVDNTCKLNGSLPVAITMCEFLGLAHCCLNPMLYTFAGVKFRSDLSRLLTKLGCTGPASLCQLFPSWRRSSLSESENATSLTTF
- protocol-summary: binding to hCXCR5, Exp 1 (assay not given)

# binder, EC50
records = [
    ("HFB2-4hz9-hG1DE (antibody, V domains shown, Humanized (VH3/VL1), human IgG1 constant region with S239D/I332E (hG1DE)) VH: QVQLQESGPGLVKPSETLSLTCTVSGFSLTSYGVSWVRQPPGKGLEWIGVIWGDGSTNYNPSLKSRVTISKDTSKNQVSLKLSSVTAADTAVYYCARVVYWGQGTLVTVSS VL: DIVMTQSPLSLPVTPGEPASISCRSSKSLLHSNGKTYLYWFLQKPGQSPQLLIYRMSNLASGVPDRFSGSGSGTDFTLKISRVEAEDVGVYYCMQHLEYPYTFGGGTKVEIK", "1.3 nM"),
    ("HFB2-4hz14-hG1DE (antibody, V domains shown, Humanized (VH3/VL1b), human IgG1 with S239D/I332E (hG1DE)) VH: QVQLQESGPGLVKPSETLSLTCTVSGFSLTSYGVSWVRQPPGKGLEWIGVIWGDGSTNYNPSLKSRVTISKDTSKNQVSLKLSSVTAADTAVYYCARVVYWGQGTLVTVSS VL: DIVMTQSPLSLPVTPGEPASISCRSSQSLLHSNGYNYLYWFLQKPGQSPQLLIYRGSNRASGVPDRFSGSGSGTDFTLKISRVEAEDVGVYYCMQHLQYPYTFGGGTKVEIK", "0.4 nM"),
    ("HFB2-4hz12-hG1DE (antibody, V domains shown, Humanized (VH3/VL4), human IgG1 with S239D/I332E (hG1DE); also called HFB2-4hz12hIgDE) VH: QVQLQESGPGLVKPSETLSLTCTVSGFSLTSYGVSWVRQPPGKGLEWIGVIWGDGSTNYNPSLKSRVTISKDTSKNQVSLKLSSVTAADTAVYYCARVVYWGQGTLVTVSS VL: DIQMTQSPSSLSASVGDRVTITCRSSKSLLHSNGKTYLYWFQQKPGKAPKLLIYRMSNLASGVPSRFSGSGSGTDFTLTISSLQPEDFATYYCMQHLEYPYTFGGGTKVEIK", "1.2 nM"),
    ("HFB2-4hG1DE (antibody, V domains shown, Chimeric HFB2-4 in the DE scaffold: human IgG1 constant region with S239D/I332E; also called HFB2-4DE) VH: QVQLKESGPGLVAPSQSLSITCTVSGFSLTSYGVSWVRQPPGKGLEWLGVIWGDGSTNYHSGLISRLSISKDNSKSQVFLKLNSLQSDDTATYYCARVVYWGQGTLVTVSA VL: DIVMTQAAPSVPVTPGESISISCRSSKSLLHSNGKTYLYWFLQRPGQSPQLLLYRMSNLASGVPDRFSGSGSGTAFTLRISRVEAEDVGVYYCMQHLEYPYTFGGGTKLEIK", "1 nM"),
    ("HFB2-4hz15-hG1DE (antibody, V domains shown, Humanized (VH3/VL1c), human IgG1 with S239D/I332E (hG1DE)) VH: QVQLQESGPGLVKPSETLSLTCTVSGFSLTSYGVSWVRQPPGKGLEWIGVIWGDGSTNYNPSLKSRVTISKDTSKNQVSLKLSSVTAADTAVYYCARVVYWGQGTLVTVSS VL: DIVMTQSPLSLPVTPGEPISLSCRSSKSLLHSNGKTYLYWFLQKPGQSPQLLLYRMSNLASGVPDRFSGSGSGTDFTLKISRVEAEDVGVYYCMQHLEYPYTFGGGTKLEIK", "0.6 nM"),
]
